# Test system: OVCAR-8
# Experiment description: Growth inhibition of human OVCAR8 cells assessed as cell growth at 10^-5 M after 48 hrs by sulforhodamine B assay relative to control
# Format: functional
# Setup conditions: OVCAR-8, 48 h, read-out: Activity
Measured parameter: growth at 10 µM (%)
Respond with the bare value in %.

Compound smiles: CC(=O)N1CCN(C(=O)Cn2c(-c3ccc(Cl)cc3)csc2=N)CC1
Unit of measurement: %
growth at 10 µM: 91.2

Input: In one line, give reported growth at 10 µM of the entry Cc1ccc(-c2csc(=N)n2CC(=O)N2CCN(C)CC2)cc1 .
Output: 99.5

Input: Look up growth at 10 µM of Cc1ccc(-c2csc(=N)n2CC(=O)N2CCN(c3ccccc3)CC2)cc1 and report it.
Output: 92.9

Input: Tell me growth at 10 µM reported for CN1CCN(C(=O)Cn2c(-c3ccccc3)csc2=N)CC1
Output: 92.9

Input: Give growth at 10 µM for N=c1scc(-c2ccc(Cl)cc2)n1CC(=O)N1CCN(c2ccccc2)CC1
Output: 97.8

Input: # return recorded growth at 10 µM for entry Cc1ccc(-c2csc(=N)n2CC(=O)N2CCOCC2)cc1
Output: 108
